# tested.target: Cellular tumor antigen p53 (Homo sapiens)
# procedure.details: TOX21_p53_BLA_p3_ratio: Tox21 HCT-116 p53 Agonism Beta-lactamase Assay, Ratio, Phase 3 (AID 2283596)
Results filed as inconclusive are left out. The source made the active and inactive calls. Rule for the calls: active = hit-call score of the fitted dose curve at least 0.9, where 1 is the maximum; inconclusive = response in the unintended direction; inactive = score below 0.9.
Mark one answer only. Choices: True = active, False = inactive

CN(C)CC/C=C1\c2ccccc2COc2ccccc21 ... False
NCc1ccc(S(N)(=O)=O)cc1 ... False

Task: What outcome does the record of this test show for NC1[C@H]2CN(c3nc4c(cc3F)c(=O)c(C(=O)O)cn4-c3ccc(F)cc3F)C[C@@H]12 (some centres undefined) ?
Result: True

Task: What outcome does the record of this test show for O=C1c2ccccc2C(=O)c2c1ccc(O)c2O ?
Result: False

Task: What outcome does the record of this test show for Oc1cc(O)cc(O)c1 ?
Result: False

Task: What outcome does the record of this test show for COC(=O)NN ?
Result: False

Task: What outcome does the record of this test show for CCCc1nc2c(C)cc(-c3nc4ccccc4n3C)cc2n1Cc1ccc(-c2ccccc2C(=O)O)cc1 ?
Result: False

Task: What outcome does the record of this test show for CCCCOC(=O)C(=O)Nc1cccc(-c2nn[nH]n2)c1 ?
Result: False

Task: What outcome does the record of this test show for O=C1NC(=O)c2cc([N+](=O)[O-])ccc21 ?
Result: False

Task: What outcome does the record of this test show for CC1(C)OC(=O)NC1=O ?
Result: False

* * *

# procedure.details: IUF_NPC1b_proliferation_BrdU_72hr: Leibniz Research Institute for Environmental Medicine (IUF) 72-hour Neural Progenitor Cell Bromodeoxyuridine (BrdU) Proliferation Assay (NPC1b) (AID 2284207)
Activity calls are given as the source filed them. How the source made its calls: active means hit-call score of the fitted dose curve at least 0.9, where 1 is the maximum; inactive means score below 0.9.
Mark one answer only. Choices: active, inactive

Example results:
Cc1[nH]n(C)c(=O)c1C(=O)c1ccc(C(F)(F)F)cc1S(C)(=O)=O ... active
CC(C)O ... active
C[C@@H]1CC[C@@H](C(C)(C)O)[C@H](O)C1 ... active
O=C1CC2(CCCC2)CC(=O)N1CCCCN1CCN(c2ncccn2)CC1 ... inactive
BrC1CC(Br)CC(Br)CC(Br)CC(Br)CC(Br)C1 (stereo unspecified) ... active
CCCCOCCOP(=O)(O)OCCOCCCC ... inactive
C[C@@H]1CCO[C@H]2Cn3cc(C(=O)NCc4ccc(F)cc4F)c(=O)c(O)c3C(=O)N12 ... inactive
CCCCCC=C(C)C(CC)CCO (stereo unspecified) ... inactive

Task: What outcome does the record of this test show for F ?
Result: active

Task: What outcome does the record of this test show for CC(CNC(=S)[S-])NC(=S)[S-].[Zn+2] (stereo unspecified) ?
Result: active

Task: What outcome does the record of this test show for CC(C)c1nn(C(=O)NC(C)(C)C)c(=O)n1N ?
Result: active

* * *

# tested.target: Cellular tumor antigen p53 (Homo sapiens)
# procedure.details: TOX21_p53_BLA_p3_ratio: Tox21 HCT-116 p53 Agonism Beta-lactamase Assay, Ratio, Phase 3 (AID 2283596)
Records with an inconclusive call do not appear. The source made the active and inactive calls. Rule for the calls: active = hit-call score of the fitted dose curve at least 0.9, where 1 is the maximum; inconclusive = response in the unintended direction; inactive = score below 0.9.
Mark one answer only. Choices: active, inactive

Nc1ccc(Cl)cc1[N+](=O)[O-] ... inactive
CC(CN(C)C)CN1c2ccccc2S(=O)(=O)c2ccccc21 (stereo unspecified) ... inactive
Cc1ccc(/C(=C\CN2CCCC2)c2ccccn2)cc1 ... inactive
O=C(Nc1cccc(C2=NCCN2)c1)Nc1cccc(C2=NCCN2)c1 ... inactive
COC(=O)Nc1nc2ccc(C(=O)c3cccs3)cc2[nH]1 ... active

Task: What outcome does the record of this test show for CN1CCN2c3ncccc3Cc3ccccc3C2C1 (stereo unspecified) ?
Result: inactive
